Numbers sourced from ChEMBL document CHEMBL3525927.

Experiment: in vitro
Conditions: Sprague-Dawley, rat, brain homogenate
Binary label based on fraction unbound at 5 µM with cut-off 0.03: below gives class 1, not below gives class 0.

Examples with answers:
Molecule	Answer Label
COc1cccc(C2(O)CCCCC2CN(C)C)c1 (centres undefined)	class 0
NCC(CC(=O)O)c1ccc(Cl)cc1 (centres undefined)	class 0
Cc1ncc2n1-c1ccc(Cl)cc1C(c1ccccc1F)=NC2	class 1
CC(C)(C)NC(=O)[C@@H]1C[C@@H]2CCCC[C@@H]2CN1C[C@@H](O)[C@H](Cc1ccccc1)NC(=O)[C@H](CC(N)=O)NC(=O)c1ccc2ccccc2n1	class 1
CN(C)CCC=C1c2ccccc2CCc2ccccc21	class 1
C=C[C@H]1C[N+]2(C)CC[C@H]1C[C@@H]2[C@@H](O)c1ccnc2ccc(OC)cc12	class 0
CSc1ccc2c(c1)N(CCC1CCCCN1C)c1ccccc1S2 (centres undefined)	class 1
NC12CC3CC(CC(C3)C1)C2	class 0

Lab note: fraction unbound at 5 µM threshold 0.03. Does this molecule come in strictly under it? CC(C)NCC(O)COc1cccc2[nH]ccc12 (centres undefined)
class 0

* * *

Assay: in vivo
Details: Sprague-Dawley, rat, brain
// reported Kp uu for each item listed
Answer with a bare number; do not write a unit.

Worked cases, answers included:
Molecule	Kp uu
CCn1cc(C(=O)O)c(=O)c2cc(F)c(N3CCNCC3)cc21	1.66
C=CCc1ccccc1OCC(O)CNC(C)C (configuration not stated)	2.83
C=C[C@H]1C[N@@]2CC[C@H]1C[C@@H]2[C@@H](O)c1ccnc2ccc(OC)cc12	3.45
C=CCOc1ccccc1OCC(O)CNC(C)C (configuration not stated)	3.25
COc1ccc2c(c1)c(CC(=O)O)c(C)n2C(=O)c1ccc(Cl)cc1	0.6

State the recorded Kp uu for this entry: NC12CC3CC(CC(C3)C1)C2
2.83

State the recorded Kp uu for this entry: CC(C)Nc1cccnc1N1CCN(C(=O)c2cc3cc(NS(C)(=O)=O)ccc3[nH]2)CC1
0.86

* * *

Test: in vitro
Conditions: Sprague-Dawley, rat, brain homogenate
Reported Metric: fraction unbound at 5 µM
Answer with a bare number; do not write a unit.

Compound	fraction unbound at 5 µM
O=C1OC2(c3ccc(O)cc3Oc3cc(O)ccc32)c2ccccc21	0.42
Nc1c2c(nc3ccccc13)CCCC2	0.16
COc1ccc2c(c1)c(CC(=O)O)c(C)n2C(=O)c1ccc(Cl)cc1	0.044

State the recorded fraction unbound at 5 µM for this entry: CC(C)Nc1cccnc1N1CCN(C(=O)c2cc3cc(NS(C)(=O)=O)ccc3[nH]2)CC1
0.022

State the recorded fraction unbound at 5 µM for this entry: CN(Cc1cnc2nc(N)nc(N)c2n1)c1ccc(C(=O)N[C@@H](CCC(=O)O)C(=O)O)cc1 [METHOTREXATE]
0.89

* * *

// reported pKa for each item listed
Assay: physchem
Description: Dissociation constant, pKa of the acidic compound by capillary electrophoresis-mass spectrometry analysis
Answer with a bare number; do not write a unit.

Worked cases, answers included:
Compound	pKa
CN1CC[C@]23c4c5ccc(O)c4O[C@H]2C(=O)CC[C@@]3(O)[C@H]1C5	8.7
CN(C)C(=O)C(CCN1CCC(O)(c2ccc(Cl)cc2)CC1)(c1ccccc1)c1ccccc1 [LOPERAMIDE]	9

State the recorded pKa for this entry: O=C1c2c(O)ccc(O)c2C(=O)c2c(NCCNCCO)ccc(NCCNCCO)c21
8.4

State the recorded pKa for this entry: C=CCOc1ccccc1OCC(O)CNC(C)C (stereo unspecified)
9.7

State the recorded pKa for this entry: CCn1cc(C(=O)O)c(=O)c2cc(F)c(N3CCNCC3)cc21
8.7

State the recorded pKa for this entry: CSc1ccc2c(c1)N(CCC1CCCCN1C)c1ccccc1S2 (stereo unspecified)
8.9

State the recorded pKa for this entry: CC(C)Nc1cccnc1N1CCN(C(=O)c2cc3cc(NS(C)(=O)=O)ccc3[nH]2)CC1
4.5

State the recorded pKa for this entry: CC(C)(C)NCC(O)COc1cccc2c1CC(O)C(O)C2 (stereo unspecified)
9.9

State the recorded pKa for this entry: CC(NC(C)(C)C)C(=O)c1cccc(Cl)c1 (stereo unspecified)
8.6

State the recorded pKa for this entry: CN1CC[C@]23c4c5ccc(O)c4O[C@H]2[C@@H](O[C@@H]2O[C@H](C(=O)O)[C@@H](O)[C@H](O)[C@H]2O)C=C[C@H]3[C@H]1C5 [MORPHINE GLUCURONIDE]
9

State the recorded pKa for this entry: Clc1cccc(Cl)c1N=C1NCCN1
8.3

State the recorded pKa for this entry: CO[C@H]1/C=C/O[C@@]2(C)Oc3c(C)c(O)c4c(O)c(c(/C=N/N5CCN(C)CC5)c(O)c4c3C2=O)NC(=O)/C(C)=C\C=C\[C@H](C)[C@H](O)[C@@H](C)[C@@H](O)[C@@H](C)[C@H](OC(C)=O)[C@@H]1C
7.6

State the recorded pKa for this entry: CC(C)(C)NC(=O)[C@@H]1C[C@@H]2CCCC[C@@H]2CN1C[C@@H](O)[C@H](Cc1ccccc1)NC(=O)[C@H](CC(N)=O)NC(=O)c1ccc2ccccc2n1
6.8

State the recorded pKa for this entry: COc1cccc(C2(O)CCCCC2CN(C)C)c1 (stereo unspecified)
9.7
